System: K-562 leukemia
procedure details: NCI-60 one-dose screen, 48 h
assay conditions: 10 µM unless noted
About 83,000 compounds went through this panel and 20% of them were active in at least one assay; those are over-represented in the sample as a whole. Activity calls are given as the source filed them. How the source made its calls: active means growth percent below 10; inactive means the rest.
// classify into active, inactive

>  <molecule>
Cc1ccc(Sc2nnc(/N=C3\C(=O)Nc4ccccc43)s2)cc1

>  <class name>
inactive

$$$$
>  <molecule>
Cc1ccc2c(n1)C(=O)c1[nH]c3ccccc3c1C2=O

>  <class name>
inactive

$$$$
>  <molecule>
O=C1NC(=O)c2c1c1c3ccccc3ccc1c1[nH]c3ccc(Br)cc3c21

>  <class name>
inactive

$$$$
>  <molecule>
O=C1/C(=C/c2ccc(Cl)c(Cl)c2)CN(C(=O)C(Cl)Cl)C/C1=C\c1ccc(Cl)c(Cl)c1

>  <class name>
active

$$$$
>  <molecule>
O=C1CNC(c2ccccc2)C(c2ccccc2)N1 (stereo not given)

>  <class name>
inactive

$$$$

// return assay outcome for COc1ccc(/C=C2\COc3ccc(O)cc3C2=O)c(OC)c1OC
inactive

// return assay outcome for O=C(NNC(=O)c1ccc(-n2cc(-c3ccccc3)nn2)cc1)Nc1ccccc1
inactive

// return assay outcome for Cc1ccc(C2=Nc3c(N)ncnc3NC(c3ccc4c(c3)OCO4)C2)cc1 (stereo not given)
inactive

// return assay outcome for CO[C@]12C=C/C(=C(/C(=O)OCc3cccnc3)C(=O)CCCCCCCC[C@@]3(OC)C=C/C(=C(/C(=O)OCc4cccnc4)C(=O)CCCCCCCC1)O3)O2
active

// return assay outcome for O=C(COc1ccc(-c2nc3ccccc3[nH]2)cc1)N=Nc1c(O)[nH]c2ccc(Cl)cc12
active
